B1: POLD4 (parent)
chain: ITDSYPVVKRREGPAGHSKGELAP

variants of: B1; test: protein stability index of a GFP-peptide fusion (GPS, HEK-293T) (PSI 1-6); higher = more stable; conditions: c terminus: a fixed tail appended;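 also: lentivirally expressed fusions sorted by FACS into six bins by GFP to DsRed ratio, PSI derived from sequencing read proportions per bin multiplied by bin number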
Listing of recorded protein stability index by entry.
Answer field: number only, no words.

Some variants with known protein stability index results, for comparison:
G20I = 2.99
S18F = 2.91
A23N = 3.05
A15Q = 2.94
K9V = 4.06

Please examine the following record next.
Request: protein stability index for G20P ?
Result: 4
